# credit: ChEMBL document CHEMBL1155968

system: Mus musculus; experiment: Behavioral activity in albino mouse assessed as decrease in locomotor activity at 100 mg/kg, ip by actophotometer; type: functional; details: route intraperitoneal

{"smiles input": "O=C(Nc1ccc(I)cc1)Nn1c(-c2ccccc2)nc2ccccc2c1=O", "subject of test": "Mus musculus", "inhibition in vivo at 100 mg/kg / %": 60}
{"smiles input": "CCc1nc2ccccc2c(=O)n1NC(=O)Nc1ccc(Cl)cc1", "subject of test": "Mus musculus", "inhibition in vivo at 100 mg/kg / %": 52}
{"smiles input": "CCc1ccc(NC(=O)Nn2c(CC)nc3ccccc3c2=O)cc1", "subject of test": "Mus musculus", "inhibition in vivo at 100 mg/kg / %": 58}
{"smiles input": "CCc1nc2ccccc2c(=O)n1NC(=O)Nc1cccc(C)c1", "subject of test": "Mus musculus", "inhibition in vivo at 100 mg/kg / %": 53}
{"smiles input": "CCOc1ccc(NC(=O)Nn2c(CC)nc3ccccc3c2=O)cc1", "subject of test": "Mus musculus", "inhibition in vivo at 100 mg/kg / %": 50}
{"smiles input": "Cc1cccc(NC(=O)Nn2c(-c3ccccc3)nc3ccccc3c2=O)c1", "subject of test": "Mus musculus", "inhibition in vivo at 100 mg/kg / %": 59}
{"smiles input": "CCc1ccc(NC(=O)Nn2c(-c3ccccc3)nc3ccccc3c2=O)cc1", "subject of test": "Mus musculus", "inhibition in vivo at 100 mg/kg / %": 61}
{"smiles input": "CCc1nc2ccccc2c(=O)n1NC(=O)Nc1ccc(C)cc1", "subject of test": "Mus musculus", "inhibition in vivo at 100 mg/kg / %": 55}
{"smiles input": "CCc1nc2ccccc2c(=O)n1NC(=O)Nc1ccc(I)cc1", "subject of test": "Mus musculus", "inhibition in vivo at 100 mg/kg / %": 55}
{"smiles input": "Cc1ccc(NC(=O)Nn2c(-c3ccccc3)nc3ccccc3c2=O)cc1", "subject of test": "Mus musculus", "inhibition in vivo at 100 mg/kg / %": 54}
